tested on: Measles morbillivirus; test: Antiviral activity against Measles virus infected in african green monkey CV1 cells assessed as reduction of viral replication; format: functional, organism-based; conditions: CV-1
I'd appreciate it if you could supply EC50 values for the items below.
Number in nM, nothing else.

// map Nc1ncc(I)c2c1ncn2[C@@H]1C[C@H](O)[C@@H](O)[C@H]1O to recorded EC50 (system: Measles morbillivirus) 2900

// repeat for Nc1ncc(Cl)c2c1ncn2[C@@H]1C[C@H](O)[C@@H](O)[C@H]1O and report 180

----------
assay: Selectivity index, ratio of CC50 for african green monkey CV1 cells to EC50 for Measles virus; type: toxicity, cell-based, CV-1; conditions: read-out: Ratio CC50/EC50
I'd appreciate it if you could supply selectivity ratio values for the items below.

What value of selectivity ratio has been recorded for this entry: Nc1ncc(Cl)c2c1ncn2[C@@H]1C[C@H](O)[C@@H](O)[C@H]1O > 1730

// repeat for Nc1ncc(I)c2c1ncn2[C@@H]1C[C@H](O)[C@@H](O)[C@H]1O and report 23

Origin of measurements: ChEMBL document CHEMBL2311354
